settings: human gut metagenome, 24 h, 2 µM; note: call rule not given here
observedProperty: Bacterial Biotransformation

[[record]]
compound = "COc1ccc2[nH]c([S+]([O-])Cc3ncc(C)c(OC)c3C)nc2c1 (centres undefined) [OMEPRAZOLE]"
measuredvalue = "Compound metabolized"

[[record]]
compound = "CNC(=C[N+](=O)[O-])NCCSCc1ccc(CN(C)C)o1 [RANITIDINE]"
measuredvalue = "Compound metabolized"

[[record]]
compound = "COc1ccccc1N1CCN(CC(O)COc2cccc3ccccc23)CC1 (centres undefined) [NAFTOPIDIL]"
measuredvalue = "Compound NOT metabolized"

[[record]]
compound = "COc1cc2nc(N(C)CCCNC(=O)C3CCCO3)nc(N)c2cc1OC (centres undefined) [ALFUZOSIN]"
measuredvalue = "Compound metabolized"

[[record]]
compound = "CCOC(=O)[C@H](CCc1ccccc1)N[C@H]1CCc2ccccc2N(CC(=O)O)C1=O [BENAZEPRIL]"
measuredvalue = "Compound metabolized"

[[record]]
compound = "COc1cc2nc(N3CCN(C(=O)c4ccco4)CC3)nc(N)c2cc1OC [PRAZOSIN]"
measuredvalue = "Compound NOT metabolized"

[[record]]
compound = "COC1=CC(=O)C[C@@H](C)[C@]12Oc1c(Cl)c(OC)cc(OC)c1C2=O [GRISEOFULVIN]"
measuredvalue = "Compound metabolized"

[[record]]
compound = "COc1ccc2c3c1O[C@H]1C[C@@H](O)C=C[C@@]31CCN(C)C2 [GALANTAMINE]"
measuredvalue = "Compound NOT metabolized"


Let us move to another entry and its Bacterial Biotransformation.
I would be grateful if you could share the reported Bacterial Biotransformation for Cc1ccc(S(=O)(=O)NC(=O)NN2CC3CCCC3C2)cc1 (centres undefined) [GLICLAZIDE] .
Compound metabolized

---

settings: human gut metagenome, 24 h, 2 µM
Where a SMILES comes first, the peptide text is derived from it. [ ]: non-standard residue; d: D form. pGlu = O=C1CC[C@@H](C(=O)O)N1; Thz = O=C(O)[C@@H]1CSCN1
observedProperty: Bacterial Biotransformation

Illustrative cases are given below, each with its answer.
[[record]]
molecule = "O=C1CC[C@@H](C(=O)N2CSC[C@H]2C(=O)O)N1 [PIDOTIMOD] ([pGlu]-[Thz]-OH)"
measuredvalue = "Compound NOT metabolized"

[[record]]
molecule = "CN(C)CCC=C1c2ccccc2C=Cc2ccccc21"
measuredvalue = "Compound NOT metabolized"

[[record]]
molecule = "CCc1nc(N)nc(N)c1-c1ccc(Cl)cc1"
measuredvalue = "Compound metabolized"

[[record]]
molecule = "OC(CCN1CCCCC1)(c1ccccc1)C1CCCCC1 (centres undefined)"
measuredvalue = "Compound metabolized"

[[record]]
molecule = "CC(C)NCC(O)c1ccc(NS(C)(=O)=O)cc1 (centres undefined)"
measuredvalue = "Compound NOT metabolized"


I would be grateful if you could share the reported Bacterial Biotransformation for c1ccc([C@H]2CN3CCSC3=N2)cc1 .
Compound metabolized

What do you get for CN1CCN(C2=Nc3cc(Cl)ccc3Nc3ccccc32)CC1 ?
Compound metabolized

What do you get for CC(C)OC(=O)C(C)(C)Oc1ccc(C(=O)c2ccc(Cl)cc2)cc1 [FENOFIBRATE] ?
Compound metabolized

What do you get for CN1CCN(C(=O)O[C@H]2c3nccnc3C(=O)N2c2ccc(Cl)cn2)CC1 ?
Compound NOT metabolized

What do you get for Cc1cn([C@H]2C[C@H](N=[N+]=[N-])[C@@H](CO)O2)c(=O)[nH]c1=O ?
Compound metabolized

What do you get for Cc1ccnc2c1NC(=O)c1cccnc1N2C1CC1 ?
Compound metabolized

What do you get for CCCC(=O)Nc1ccc(OCC(O)CNC(C)C)c(C(C)=O)c1 (centres undefined) ?
Compound metabolized

What do you get for CN1CCc2cccc3c2[C@H]1Cc1ccc(O)c(O)c1-3 ?
Compound NOT metabolized

What do you get for CCN(CC)CCOC(=O)C(Cc1cccc2ccccc12)CC1CCCO1.O=C(O)C(=O)O (centres undefined) [NAFRONYL OXALATE] ?
Compound metabolized

What do you get for CCC1(c2ccc(N)cc2)CCC(=O)NC1=O (centres undefined) [AMINOGLUTETHIMIDE] ?
Compound NOT metabolized

What do you get for CCOC(=O)[C@H](CCc1ccccc1)N[C@@H](C)C(=O)N1[C@H](C(=O)O)C[C@H]2CCCC[C@@H]21 ?
Compound metabolized

What do you get for CCCc1nc(C(C)(C)O)c(C(=O)OCc2oc(=O)oc2C)n1Cc1ccc(-c2ccccc2-c2nnn[nH]2)cc1 ?
Compound metabolized

What do you get for OCCN1CCN(CCCN2c3ccccc3Sc3ccc(C(F)(F)F)cc32)CC1 ?
Compound metabolized

What do you get for N#Cc1ccc(C(c2ccc(C#N)cc2)n2cncn2)cc1 ?
Compound NOT metabolized

What do you get for CN(C)CC(c1ccc(O)cc1)C1(O)CCCCC1.O=C(O)CCC(=O)O (centres undefined) [DESVENLAFAXINE SUCCINATE] ?
Compound NOT metabolized

What do you get for COc1ccc2c3c1O[C@H]1C[C@@H](O)C=C[C@@]31CCN(C)C2 ?
Compound metabolized

What do you get for CCCc1nc2c(C)cc(-c3nc4ccccc4n3C)cc2n1Cc1ccc(-c2ccccc2C(=O)O)cc1 ?
Compound metabolized

What do you get for CCN(CC)C(C)CN1c2ccccc2Sc2ccccc21 (centres undefined) ?
Compound metabolized

What do you get for CCCCCCOC(=O)/N=C(/N)c1ccc(NCc2nc3cc(C(=O)N(CCC(=O)OCC)c4ccccn4)ccc3n2C)cc1.CS(=O)(=O)O [DABIGATRAN ETEXILATE MESYLATE] ?
Compound NOT metabolized

---

conditions: human gut metagenome, 24 h, 2 µM
observedProperty: Bacterial Biotransformation

Illustrative cases are given below, each with its answer.
[[record]]
compound = "C=CCc1ccccc1OCC(O)CNC(C)C (stereo not drawn)"
measuredvalue = "Compound metabolized"

[[record]]
compound = "Cc1ccc(-c2nc3ccc(C)cn3c2CC(=O)N(C)C)cc1"
measuredvalue = "Compound metabolized"

[[record]]
compound = "Cc1cn([C@H]2C[C@H](N=[N+]=[N-])[C@@H](CO)O2)c(=O)[nH]c1=O"
measuredvalue = "Compound NOT metabolized"

[[record]]
compound = "N#Cc1ccc(C(c2ccc(C#N)cc2)n2cncn2)cc1"
measuredvalue = "Compound NOT metabolized"

[[record]]
compound = "OCCN1CCN(CCCN2c3ccccc3Sc3ccc(C(F)(F)F)cc32)CC1"
measuredvalue = "Compound metabolized"


I would be grateful if you could share the reported Bacterial Biotransformation for CN(C)CCc1c[nH]c2ccc(Cn3cncn3)cc12.O=C(O)c1ccccc1 [RIZATRIPTAN BENZOATE] .
Compound NOT metabolized

What do you get for COc1cc2nc(N3CCN(C(=O)c4ccco4)CC3)nc(N)c2cc1OC ?
Compound metabolized

---

conditions: human gut metagenome, 24 h, 2 µM
observedProperty: Bacterial Biotransformation

Illustrative cases are given below, each with its answer.
[[record]]
compound = "CC(=O)OCC(=O)[C@@]12N=C(C)O[C@@H]1C[C@H]1[C@@H]3CCC4=CC(=O)C=C[C@]4(C)[C@H]3[C@@H](O)C[C@@]12C"
observedproperty = "Bacterial Biotransformation"
measuredvalue = "Compound metabolized"

[[record]]
compound = "COCCc1ccc(OCC(O)CNC(C)C)cc1.COCCc1ccc(OCC(O)CNC(C)C)cc1.O=C(O)C(O)C(O)C(=O)O (centres undefined) [METOPROLOL TARTRATE]"
observedproperty = "Bacterial Biotransformation"
measuredvalue = "Compound NOT metabolized"

[[record]]
compound = "CN(C)CCc1c[nH]c2ccc(Cn3cncn3)cc12.O=C(O)c1ccccc1 [RIZATRIPTAN BENZOATE]"
observedproperty = "Bacterial Biotransformation"
measuredvalue = "Compound NOT metabolized"

[[record]]
compound = "CC(C)(C)NC[C@H](O)COc1ccccc1C1CCCC1.CC(C)(C)NC[C@H](O)COc1ccccc1C1CCCC1.O=S(=O)(O)O [PENBUTOLOL SULFATE]"
observedproperty = "Bacterial Biotransformation"
measuredvalue = "Compound metabolized"

[[record]]
compound = "CCN(CC)CCNC(C(=O)OCCC(C)C)c1ccccc1.Cl.Cl (centres undefined)"
observedproperty = "Bacterial Biotransformation"
measuredvalue = "Compound metabolized"

[[record]]
compound = "Cc1nc2n(c(=O)c1CCN1CCC(c3noc4cc(F)ccc34)CC1)CCCC2O (centres undefined)"
observedproperty = "Bacterial Biotransformation"
measuredvalue = "Compound metabolized"

[[record]]
compound = "CNC(=C[N+](=O)[O-])NCCSCc1ccc(CN(C)C)o1"
observedproperty = "Bacterial Biotransformation"
measuredvalue = "Compound metabolized"

[[record]]
compound = "CC(C)N(CCC(C(N)=O)(c1ccccc1)c1ccccn1)C(C)C.O=P(O)(O)O (centres undefined) [DISOPYRAMIDE PHOSPHATE]"
observedproperty = "Bacterial Biotransformation"
measuredvalue = "Compound NOT metabolized"


Let us move to another entry and its Bacterial Biotransformation.
I would be grateful if you could share the reported Bacterial Biotransformation for CC(CN(C)C)CN1c2ccccc2CCc2ccccc21.O=C(O)/C=C\C(=O)O (centres undefined) [TRIMIPRAMINE MALEATE] .
Compound metabolized
